The compounds listed here are annotated with their Vd.
assay: in vivo; settings: rat, iv, 1 mg/kg
Record the value in L/kg, omitting the unit from your answer.

NC(=O)c1cc(NC(=O)c2cc(-c3ncccc3Cl)ccc2Cl)n(-c2ccccc2)n1	1.1

Please examine the following record next.
// Vd lookup, key: `NC(=O)c1cc(NC(=O)c2cc(-c3ncccc3F)ccc2Cl)n(-c2ccccc2)n1`
0.46

* * *

assay: physchem; conditions: buffer, pH 7.4
property measured: logD
A bare number is all that is needed in reply.

CC(=O)Nc1cccc(-c2ccc(Cl)c(C(=O)Nc3cc(C(N)=O)nn3-c3ccccc3)c2)n1	2.7
O=C(NCCO)c1cc(NC(=O)c2cc(-c3ncccc3F)c(Cl)cc2Cl)n(-c2ccccc2)n1	2.8
O=C(NCCO)c1cc(NC(=O)c2cc(-c3ccccn3)c(C(F)(F)F)cc2Cl)n(-c2ccccc2)n1	3
NC(=O)c1cccc(-c2ccc(Cl)c(C(=O)Nc3cc(C(N)=O)nn3-c3ccccc3)c2)n1	2.3
NC(=O)c1cc(NC(=O)c2cc(-c3nc(N)ccc3Cl)ccc2Cl)n(-c2ccccc2)n1	3.2

State the recorded logD for this entry: `Cc1cc(NC(=O)c2ccc(Cl)cc2Cl)n(-c2ccccc2)n1`
3.3

Here is the next compound: `NC(=O)c1cc(NC(=O)c2cc(-c3cccc(N)n3)c(Cl)cc2Cl)n(-c2ccccc2)n1`
2.9

What would you report for `NC(=O)c1cc(NC(=O)c2cc(-c3cccc(C(F)F)n3)ccc2Cl)n(-c2ccccc2)n1` ?
3.5

Here is the next compound: `COc1cc(Cl)c(C(=O)Nc2cc(C(N)=O)nn2-c2ccccc2)cc1-c1ccccn1`
2.4

* * *

test: in vivo; conditions: rat, po, 3 mg/kg
property measured: Tmax (h)
Dear colleague, please return just the value in h, with no unit written.

NC(=O)c1cc(NC(=O)c2cc(-c3ncccc3Cl)ccc2Cl)n(-c2ccccc2)n1	0.9

Consider now this further compound.
What measured Tmax goes with `NC(=O)c1cc(NC(=O)c2cc(-c3ncccc3F)ccc2Cl)n(-c2ccccc2)n1` ?
4

* * *

assay: in vivo; conditions: rat, po, 2 mg/kg
property measured: Tmax (h)
Only the number, expressed in h, is required.

Tmax lookup needed for `CC(C)(O)CNC(=O)c1cc(NC(=O)c2cc(-c3ncccc3F)c(Cl)cc2Cl)n(-c2ccccc2)n1` , thanks.
3

* * *

assay: in vivo; conditions: rat, po, 3 mg/kg
Entries and their bioavailability
Please state the figure in %; there is no need to write the unit.

NC(=O)c1cc(NC(=O)c2cc(-c3ncccc3Cl)ccc2Cl)n(-c2ccccc2)n1	85

Consider the record given below.
What does the data say about its bioavailability? Entry: `NC(=O)c1cc(NC(=O)c2cc(-c3ncccc3F)ccc2Cl)n(-c2ccccc2)n1`
100

* * *

experiment: physchem; conditions: buffer, pH 7.4
Label Criterion met when logD is at or above 3; anything below gets Criterion not met.

Illustrative cases are given below, each with its answer.
Cc1cc(Cl)c(C(=O)Nc2cc(C(N)=O)nn2-c2ccccc2)cc1-c1ccccn1	Criterion not met
NC(=O)c1cc(NC(=O)c2cc(-c3ncccc3Cl)ccc2Cl)n(-c2ccccc2)n1	Criterion not met
NC(=O)c1cc(NC(=O)c2cc(-c3ncccc3F)ccc2Cl)n(-c2ccccc2)n1	Criterion not met
CC(C)(O)CNC(=O)c1cc(NC(=O)c2cc(-c3ncccc3F)c(F)cc2Cl)n(-c2ccccc2)n1	Criterion met
O=C(NCCO)c1cc(NC(=O)c2cc(-c3ccccn3)c(Cl)cc2Cl)n(-c2ccccc2)n1	Criterion not met

Would you say `NC(=O)c1cc(NC(=O)c2cc(-c3ncccc3F)c(F)cc2Cl)n(-c2ccccc2)n1` shows logD at minimum 3?
Criterion not met

Same for `NC(=O)c1cc(NC(=O)c2cc(-c3ccccn3)c(OC(F)F)cc2Cl)n(-c2ccccc2)n1`
Criterion not met

Same again, this time with `NC(=O)c1cc(NC(=O)c2cc(-c3ccccn3)c(F)cc2Cl)n(-c2ccccc2)n1`
Criterion not met

One more compound: `CC(C)(O)CNC(=O)c1cc(NC(=O)c2cc(-c3ncccc3F)c(Cl)cc2Cl)n(-c2ccccc2)n1`
Criterion met

What do we get for `NC(=O)c1cc(NC(=O)c2cc(-c3ccccn3)c(C3CC3)cc2Cl)n(-c2ccccc2)n1` ?
Criterion met

Then what about the compound `NCCNC(=O)c1cc(NC(=O)c2cc(-c3ccccn3)c(Cl)cc2Cl)n(-c2ccccc2)n1` ?
Criterion not met
